Test system: Serratia marcescens expressing IMP-1 (CL5741)
Format: cell-based
Details: with imipenem 1 μg/ml; 95% inhibition of bacterial growth
Method: The bacterial strains tested included the clinical strains Escherichia coil expressing NDM-1 (CLB30005, CLB30016), Serratia marcescens expressing IMP-1 (CL5741), and Klebsiella pneumoniae expressing VIM-1 (H-LMA599644). Inhibitor activity was measured in the presence and absence of imipenem in a 384-well microplate. The clinical strains CLB30016, CL5741 and IHMA599644 were grown on trypticase soy agar containing 5% sheep's blood. […]
Consider the following molecules; for each one, report its CL5741 S. marcescens MITC95 IMP.
Don't forget the unit after the number, please.

1. NC[C@H](N)CNS(=O)(=O)c1ccc(N2CCC(CO)CC2)c(-c2nnn[nH]2)c1S(N)(=O)=O
3.13 µM

Batch request: CL5741 S. marcescens MITC95 IMP for each of the following molecules.
1. NCCS(=O)(=O)c1ccc(N2CCCCC2)c(-c2nnn[nH]2)c1S(N)(=O)=O
2. NCC(CN)NS(=O)(=O)c1ccc(N2CCC(CO)CC2)c(-c2nnn[nH]2)c1S(N)(=O)=O
3. NS(=O)(=O)c1c(S(=O)(=O)N[C@@H]2CCNC2)ccc(N2CC3(CCNCC3)C2)c1-c1nnn[nH]1

Output line:
2.34 µM
3.13 µM
1.56 µM
